Target: Dipeptidyl peptidase 1 (Homo sapiens, UniProt P53634)
Sequence (P53634 25-134 limits assumed): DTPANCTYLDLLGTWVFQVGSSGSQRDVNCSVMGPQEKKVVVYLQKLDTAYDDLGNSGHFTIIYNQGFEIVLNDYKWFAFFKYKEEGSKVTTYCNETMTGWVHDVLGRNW
Sequence (P53634 231-394 limits assumed): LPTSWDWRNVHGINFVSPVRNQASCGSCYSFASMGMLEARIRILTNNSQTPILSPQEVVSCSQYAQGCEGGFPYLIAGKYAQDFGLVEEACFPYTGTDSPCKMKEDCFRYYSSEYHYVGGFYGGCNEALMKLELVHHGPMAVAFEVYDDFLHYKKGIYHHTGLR
Sequence (P53634 395-463 limits assumed): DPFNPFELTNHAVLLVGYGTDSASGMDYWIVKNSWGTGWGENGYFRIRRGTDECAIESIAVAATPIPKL
Assay: Inhibition of human cathepsin C
test.readout: IC50 (µM)

Guide cases for IC50, answers given:
N#Cc1ccc(-c2ccc(C[C@@H](C#N)NC(=O)[C@@H]3CC4(CC4)CN3)cc2)cc1	0.0776
N#Cc1ccc(-c2ccc(C[C@@H](C#N)NC(=O)[C@H]3CN4CCC[C@H]4CN3)cc2)cc1	0.394

P: N#Cc1ccc(-c2ccc(C[C@@H](C#N)NC(=O)[C@@H]3C[C@H]4CCC[C@H]4N3)cc2)cc1
Q: N#Cc1ccc(-c2ccc(C[C@@H](C#N)NC(=O)[C@@H]3CC4(CCCC4)CN3)cc2)cc1
R: N#Cc1ccc(-c2ccc(C[C@@H](C#N)NC(=O)[C@@H]3COCCN3)cc2)cc1
S: N#Cc1ccc(-c2ccc(C[C@@H](C#N)NC(=O)[C@@H]3CC4CCCC[C@@H]4N3)cc2)cc1 (single isomer, unassigned)
Your job: order these 4 records by IC50, ascending. Provide the ranking by listing each label in its place in the requested order.
Q, P, S, R
